Tested on: A549
Experiment: Selectivity ratio of IC50 for human A549 cells in presence of NQO1 inhibitor dicoumarol to IC50 for human A549 cells
Assay type: functional

{"columns": ["compound", "Ratio IC50"],
 "data": [
  ["CC1OC2=C(C(=O)C(=O)c3ccccc32)C1C (mixture of isomers)", 2.4],
  ["CC1(C)CCC2=C(O1)c1ccccc1C(=O)C2=O", 3.6],
  ["CC1CC2=C(O1)c1ccccc1C(=O)C2=O (racemic)", 3.8],
  ["COc1ccc2c(c1)C(=O)C(=O)C1=C2OC(C)C1(C)C (racemic)", 3.7],
  ["COc1cccc2c1C1=C(C(=O)C2=O)C(C)(C)C(C)O1 (racemic)", 4.9],
  ["COc1ccc2c(c1)C1=C(C(=O)C2=O)C(C)(C)C(C)O1 (racemic)", 6],
  ["CC1(C)CC2=C(O1)c1ccccc1C(=O)C2=O", 2],
  ["CC1OC2=C(C(=O)C(=O)c3ccccc32)C1(C)C (racemic)", 3.9]
]}
